These data points were gathered from patent US6169181A.

assay.system: HIV-1 protease (Human immunodeficiency virus type 1 group M subtype B, UniProt P04585)
assay.text: biochemical
applied.conditions: Table II; enzyme HIV-1; DOSE 1.100 (unit not given)

{"columns": ["compound", "PROTEASE % INHIB. [%]"],
 "data": [
  ["CCCC1(CCC)CC(O)=C(C(c2cccc(NS(=O)(=O)c3cn(C)cn3)c2)C(C)(C)C)C(=O)O1 (single isomer, unassigned) [Example 318]", 101.88],
  ["CC(C)CC1(CC(C)C)CC(O)=C(C(c2cccc(NS(=O)(=O)c3cn(C)cn3)c2)C(C)(C)C)C(=O)O1 (racemic) [Example 305]", 114.35],
  ["CCC[C@@]1(CCc2ccccc2)CC(O)=C([C@H](CC)c2cccc(NS(=O)(=O)c3ccc(N)cn3)c2)C(=O)O1 (single isomer, unassigned) [Example 315]", 88.08],
  ["CCCC1(CCc2ccccc2)CC(O)=C(C(c2cccc(NS(=O)(=O)c3ccc(C(F)(F)F)cn3)c2)C(C)(C)C)C(=O)O1 (stereo not drawn) [Example 293]", 94.18],
  ["Cn1cnc(S(=O)(=O)Nc2cccc(C(C3=C(O)CC(CCc4ccccc4)(CCc4ccccc4)OC3=O)C(C)(C)C)c2)c1 (stereo not drawn) [Example 343]", 81.02],
  ["CCCC1(CCC)CC(O)=C(C(c2cccc(NS(=O)(=O)c3ccc(C(F)(F)F)cn3)c2)C(C)(C)C)C(=O)O1 (single isomer, unassigned) [Example 286]", 89.29]
]}
